experiment: CEETOX_H295R_MTT_cell_viability: Viability Assessment in the CeeTox HT-H295R MTT Assay (AID 2283718)
Active and inactive are the calls of the source. How the source made its calls: active means hit-call score of the fitted dose curve at least 0.9, where 1 is the maximum; inactive means score below 0.9.
Outcomes you can answer with include only these: active, inactive

// known answers, use as guide
> print(dat)
                                   compound  class.label
1  CCc1nn(C2CCCCC2)c2cc(C3(C#N)CCC(C(=O)O)CC3)ccc12 (stereo not given)     inactive
2  CC#C[C@]1(O)CC[C@H]2[C@@H]3CCC4=CC(=O)CCC4=C3[C@@H](c3ccc(N(C)C)cc3)C[C@@]21C       active
3  NC(=O)N(O)[C@@H]1C=C[C@H](Oc2cccc(Oc3ccc(F)cc3)c2)C1     inactive
4  CCc1ccc(CCOc2ccc(CC3SC(=O)NC3=O)cc2)nc1 (stereo not given)     inactive

Consider the record given below.
What call does the record list for O=C(O)c1ccccc1C(c1ccc(O)cc1)c1ccc(O)cc1 ?
inactive

----------
test: ATG_TCF_b_cat_CIS: Attagene CIS-FACTORIAL HepG2 Assay for human T-Cell-Factor with beta-catenin (TCF/b-cat) (AID 2282965); conditions: HepG2 TCF/beta-catenin cis-reporter transcription, actives raise or lower the signal
Active and inactive are the calls of the source. Rule for the calls: active = hit-call score of the fitted dose curve at least 0.9, where 1 is the maximum; inactive = score below 0.9.
Permitted responses: T for active, F for inactive

Worked examples, 10 molecules total:
> print(dat)
                                    molecule  class.label
 1  NC(=O)N(O)[C@@H]1C=C[C@H](Oc2cccc(Oc3ccc(F)cc3)c2)C1            T
 2                     CCCCCCCCCCCCN1CCCC1=O            F
 3  O=C(O)Cc1cc(I)c(Oc2cc(I)c(O)c(I)c2)c(I)c1            F
 4  CCCOc1sc(C(=O)N2CCC(c3cc(CN)ccc3F)CC2)c(C)c1Br            F
 5  Cc1oc(-c2ccccc2)nc1CCOc1ccc(C[C@H](Nc2ccccc2C(=O)c2ccccc2)C(=O)O)cc1            F
 6  CCCCC(CC)COC(=O)CCCCC(=O)OCC(CC)CCCC (centres undefined)            F
 7      CCCCC[C@H](O)CC(=O)CCc1ccc(O)c(OC)c1            F
 8                            CCCCCCCCC(=O)O            F
 9  C=C(C)C(=O)OCCC(F)(F)C(F)(F)C(F)(F)C(F)(F)C(F)(F)C(F)(F)F            F
10                    c1ccc2c(c1)Cc1ccccc1-2            F

For CCN(CC)CCNc1ccc(CNC=O)c2sc3ccc(OC)cc3c(=O)c12 , which call appears in the assay record?
F

Hi team, can someone confirm the assay call for COCC(C)O (centres undefined) ?
F

Hey, what did the test say about c1ccc2cc3c(ccc4ccccc43)cc2c1 ?
F

Hi, sorry to bother you, what did the test record for CN1CCN(c2ccccc2/C=C2\SCCN(c3ccc(Cl)c(Cl)c3)C2=O)CC1 ?
F

// param item: C[C@@H]1C[C@H]2[C@@H]3CCC4=CC(=O)C=C[C@]4(C)[C@@]3(F)[C@@H](O)C[C@]2(C)[C@@]1(O)C(=O)COP(=O)(O)O ; yields the recorded call
F

Check the results log: what was the call for CCOC(=O)CC(O)(CC(=O)OCC)C(=O)OCC ?
F

Returns: the outcome recorded for C#C[C@]1(O)CC[C@H]2[C@@H]3CCC4=CC(=O)CC[C@@H]4[C@H]3CC[C@@]21C in this assay.
F

Give the logged outcome of this assay for the following molecule: CCCCC(CC)COC(=O)CCCCC(=O)OCc1ccccc1 (centres undefined)
F

// param item: Cc1ccc(S(=O)(=O)O)c(C)c1 ; yields the recorded call
F

Recorded test call requested for CCCCCCCCOC(=O)CCCCCCCCC(=O)OCCCCCCCC
F

What outcome does the record of this test show for OC1CCCCC1 ?
F

Could you kindly confirm the outcome this assay logged for CN(C)C=O ?
F

Could you check what this test reported for OCCC(F)(F)C(F)(F)C(F)(F)C(F)(F)C(F)(F)C(F)(F)F ?
F

Fill in: this test's call for N#C[C@@H]1CC(F)(F)CN1C(=O)CNC1CC2CCC(C1)N2c1ncccn1 (some centres undefined) is ___
F

----------
read-out: Monocyte Chemoattractant Protein-1 (MCP1), CCL2 (gene 6347); test: BSK_4H_MCP1: BioMAP Diversity Plus: 4H Assay for Monocyte Chemoattractant Protein-1 (MCP1) Biomarker Activity (AID 2283018); conditions: primary human endothelial cells (HUVEC); actives raise or lower the signal
Calls of active or inactive are those of the source. Rule for the calls: active = hit-call score of the fitted dose curve at least 0.9, where 1 is the maximum; inactive = score below 0.9.
Give one outcome, nothing more. List: T = active, F = inactive

A selection of reference data follows.
> print(dat)
                                   compound  class.label
1                      CN1CCC[C@H]1c1cccnc1            F
2                                 OC1CCCCC1            F
3  CC1=C(/C=C/C(C)=C/C=C/C(C)=C/C(=O)O)C(C)(C)CCC1            F
4  CCCCC(CC)COC(=O)CCCCC(=O)OCc1ccccc1 (configuration not stated)            F
5  C[C@@H]1C[C@H]2[C@@H]3CCC4=CC(=O)C=C[C@]4(C)[C@@]3(F)[C@@H](O)C[C@]2(C)[C@@]1(O)C(=O)COP(=O)(O)O            F
6  CCC(=C(c1ccc(O)cc1)c1ccc(OCCN(C)C)cc1)c1ccccc1            T

How was Oc1cc2ccccc2c2ccccc12 classified in this test?
T

----------
read-out: C-C motif chemokine 2 (Homo sapiens); test: BSK_KF3CT_MCP1: BioMAP Diversity Plus: KF3CT Assay for Monocyte Chemoattractant Protein 1 (MCP1/CCL2) Biomarker Activity (AID 2283073); settings: primary human keratinocytes with fibroblasts; actives raise or lower the signal
Calls of active or inactive are those of the source. How the source made its calls: active means hit-call score of the fitted dose curve at least 0.9, where 1 is the maximum; inactive means score below 0.9.
The categories you may choose from are active, inactive

Observe how each entry below is paired with its result.
> print(dat)
                                    compound  class.label
 1               CC(C)(C)c1cccc(C(C)(C)C)c1O       active
 2                CC(O)CO (stereo not drawn)     inactive
 3                                 OC1CCCCC1     inactive
 4                     Oc1cc2ccccc2c2ccccc12       active
 5                        COC(=O)CCCCC(=O)OC     inactive
 6                              CCCCCCC(=O)O     inactive
 7                 COc1ccc([N+](=O)[O-])cc1N     inactive
 8  CC(C)(C)CC(C)(C)c1ccc(O)c(-n2nc3ccccc3n2)c1     inactive
 9                    c1ccc2c(c1)Cc1ccccc1-2     inactive
10  CCc1nn(C2CCCCC2)c2cc(C3(C#N)CCC(C(=O)O)CC3)ccc12 (stereo not drawn)       active

Consider now this further compound.
For this compound, state the assay outcome: CCCCCCCCCCCCCCCS(=O)(=O)Oc1ccccc1
inactive

----------
read-out: Interferon-gamma inducible Protein 10 (IP10), CXCL10 (gene 3627); experiment: BSK_KF3CT_IP10: BioMAP Diversity Plus: KF3CT Assay for Interferon-gamma inducible Protein 10 (IP10) Biomarker Activity (AID 2283068); details: primary human keratinocytes with fibroblasts; actives raise or lower the signal
Activity calls are given as the source filed them. Rule for the calls: active = hit-call score of the fitted dose curve at least 0.9, where 1 is the maximum; inactive = score below 0.9.
Measurement kind: AC50

Worked set:
> print(dat)
                                   compound          reported
1                        COC(=O)CCCCC(=O)OC          inactive
2  CC[C@H](c1ccc(O)cc1)[C@@H](CC)c1ccc(O)cc1  26.5 µM (active)
3   CC(C)(C)c1cc(C(C)(C)C)c(O)c(C(C)(C)C)c1  32.8 µM (active)
4  NCC(F)(F)C(F)(F)C(F)(F)C(F)(F)C(F)(F)C(F)(F)C(F)(F)F          inactive

For each of the compounds below, note its AC50.
1. Oc1cccc(O)c1
2. CCCCCCCCCCCCCC[N+](C)(C)C
3. Cc1cc(C)c(O)c(C)c1
4. C[C@@H]1C[C@H]2[C@@H]3CCC4=CC(=O)C=C[C@]4(C)[C@@]3(F)[C@@H](O)C[C@]2(C)[C@@]1(O)C(=O)COP(=O)(O)O

inactive
4.81 µM (active)
inactive
inactive
